The reported numbers originate from patent US8912186B2.

Reported remaining activity at 200 µM values for a set of molecules
# TARGET_SYSTEM: S6K (Homo sapiens, UniProt P23443)
# Sequence (P23443 whole entry): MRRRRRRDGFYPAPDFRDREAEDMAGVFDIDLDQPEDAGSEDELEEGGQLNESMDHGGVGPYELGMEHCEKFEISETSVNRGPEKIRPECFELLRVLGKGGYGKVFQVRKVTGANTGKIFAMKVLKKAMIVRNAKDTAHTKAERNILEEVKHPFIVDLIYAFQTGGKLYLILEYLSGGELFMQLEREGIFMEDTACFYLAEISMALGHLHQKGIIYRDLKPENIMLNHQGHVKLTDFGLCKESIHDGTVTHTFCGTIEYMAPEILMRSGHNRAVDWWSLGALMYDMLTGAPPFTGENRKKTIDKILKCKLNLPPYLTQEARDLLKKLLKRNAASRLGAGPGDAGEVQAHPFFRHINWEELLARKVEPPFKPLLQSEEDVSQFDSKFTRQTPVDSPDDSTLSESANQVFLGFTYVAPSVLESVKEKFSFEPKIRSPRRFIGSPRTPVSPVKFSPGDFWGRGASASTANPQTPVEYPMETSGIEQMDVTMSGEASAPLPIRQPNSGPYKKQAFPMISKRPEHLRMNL
# PROTOCOL_DETAILS: cell-free kinase activity assay
# Format: biochemical
# EXPERIMENTAL_SETUP: 200 μM compound; DMSO control set 100%; read-out: percent of catalytic activity of the Kinase in the presence of compound as compared to the solvent control (DMSO): S6K

Field: example entries. Status: answers known.
MOLECULE | remaining activity at 200 µM
O=C(O)/C=C(/CCc1ccc(C(F)(F)F)cc1)c1ccccc1 | ~60%
O=C(O)CC(Cc1nc2cc(Cl)c(Cl)cc2[nH]1)c1ccccc1 (stereo not drawn) | ~50%

Prompt: Can you share its remaining activity at 200 µM? I mean this molecule: O=C(O)CC(Cc1nc2c(Cl)cc(Cl)cc2[nH]1)c1ccc(Cl)cc1 (stereo not drawn)
Completion: ~50%

Prompt: Try `O=C(O)/C=C(\CCc1ccc(Cl)cc1)c1ccccc1F` next.
Completion: ~80%

Prompt: Another molecule to look at: O=C(O)CC(CC(=O)N1Cc2ccc(Cl)cc2C1)c1ccc(Cl)cc1 (stereo not drawn)
Completion: ~80%

Prompt: Same read-out for O=C(O)CC(C(=O)N1CCc2ccccc2C1)c1ccc(Cl)cc1 (stereo not drawn) ?
Completion: ~80%
